- Assay procedure: NCI Yeast Anticancer Drug Screen. Data for the sgs1 mgt1 strain (AID 161);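 also: 0% = growth of cultures given vehicle only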
- Study conditions: S. cerevisiae sgs1 mgt1 strain, at 50.0 µM, stronger effect = higher value
This is part of a sample that, as a whole, favours compounds with a hit. Of some 79,000 tested, about 15% had one in any assay.
Experimental endpoint: growth inhibition (%)
Write the value in % as a bare number.

Consider the reported growth inhibition for these compounds:
Compound | Readout unit | growth inhibition
O=C1CNC(=O)N1 | % | 2
CC(=O)Nc1ccc(C(=O)NN2C(=O)CSC2c2ccc([N+](=O)[O-])cc2)cc1 (stereo not drawn) | % | -54.5
NC(=O)CCC(N)=O | % | 5.25
N/N=C1\C(Cl)=C(Cl)c2ccccc21 | % | 10.2
Cc1[nH]nc(N)c1C(N)=O | % | 26.6

Recorded result, COc1cccc(CCC(=O)O)c1 , growth inhibition: -21.6

The reported value for CCC1(C#N)N=C(c2ccccc2)c2ccccc2N1C(=O)OC (stereo not drawn) in terms of growth inhibition is 17.8

Record CCCCCCCCCCCCOc1ccc(C(C)(C)C)cc1 , field growth inhibition: -22.1

COC1(OC)C[C@H](C)[C@@]23O[C@]24c2cc(O)c5c(c2N[C@H]3C#C/C=C\C#C[C@]14O)C(=O)c1ccccc1C5=O has a reported growth inhibition of 88.8

###

- Assay procedure: NCI Yeast Anticancer Drug Screen. Data for the bub3 strain (AID 167)
- Study conditions: S. cerevisiae bub3 mutant strain, at 50.0 µM, stronger effect = higher value
About 79,000 compounds went through this panel and 15% of them were active in at least one assay; those are over-represented in the sample as a whole. Calls of active or inactive are those of the source. Rule as the data show it: active = growth inhibition above about 70%; inactive = the rest.
Experimental endpoint: growth inhibition

Just so you know, measured growth inhibition for O=C1C(Cc2ccccc2)CCCC1Cc1ccccc1 (centres undefined) came out at -6.4% (inactive)

The compound listed as O=C(O)CNC(=O)C(Cc1ccccc1)NC(=O)CNC(=O)C(CSC(c1ccccc1)c1ccccc1)NC(=O)C(CSC(c1ccccc1)(c1ccccc1)c1ccccc1)NC(=O)OCc1ccccc1 (centres undefined) shows growth inhibition equal to -9.55% (inactive)

Per the record, CC(=O)CC(=O)NCCCN1CCCCC1 has growth inhibition of -34.4% (inactive)

Lookup result for CC(C(=O)c1ccc(Cl)cc1)C1=NC2NN(c3ccccc3)C(=O)C2=C1C(C)C(=O)c1ccc(Cl)cc1 (centres undefined) ; measured growth inhibition: 1.8% (inactive)

###

- Assay procedure: NCI Yeast Anticancer Drug Screen. Data for the bub3 strain (AID 167)
- Study conditions: S. cerevisiae bub3 mutant strain, at 50.0 µM, stronger effect = higher value
- Protocol: Growth inhibition of yeast strains with defined genetic alterations is measured as a screen for potential anti-cancer activity. Selected strains with alterations in DNA damage repair or cell cycle control were exposed to compounds and growth inhibition was measured relative to vehicle treated controls. The strain used in this assay is bub3
This is part of a sample that, as a whole, favours compounds with a hit. Of some 79,000 tested, about 15% had one in any assay. Activity calls are given as the source filed them. Cut-off read from the data, not from the text of the source: active = growth inhibition above about 70%; inactive = the rest.
Experimental endpoint: growth inhibition

Would you please look over these solved cases?
Compound | growth inhibition
N#CC(C#N)=C1C=Cc2ccccc2O1 | -1.4% (inactive)
Cc1cccn2c(C)nnc12 | 28.1% (inactive)
O=C1c2cc([N+](=O)[O-])sc2C(=O)c2c([N+](=O)[O-])csc21 | 92.1% (active)
C#CC(C)OC(=O)Nc1ccccc1 (stereo not given) | -7.65% (inactive)

# evaluate next
Record summary for COC1OC(COC(=O)c2ccc([N+](=O)[O-])cc2)C(O)C1SC#N (stereo not given) : reported growth inhibition = 13.2% (inactive)

###

- Assay procedure: NCI Yeast Anticancer Drug Screen. Data for the rad50 strain (AID 155);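 also: 0% = growth of vehicle-only cultures of the same strain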
- Study conditions: S. cerevisiae rad50 strain growth inhibition; at 50.0 µM; stronger effect = higher value
This is part of a sample that, as a whole, favours compounds with a hit. Of some 79,000 tested, about 15% had one in any assay. Calls of active or inactive are those of the source. Rule as the data show it: active = growth inhibition above about 70%; inactive = the rest.
// reported growth inhibition per item

Molecule | Measured value
C#CCn1cnc2c1c(=O)n(C)c(=O)n2C | 10.2% (inactive)

Lab book: growth inhibition of O=C(NC1CC1)C1CC1 noted as -20.2% (inactive)

growth inhibition reported for this molecule C=C(CCC(Cl)C(O)CO)[Si](C)(C)C (stereo not given) : 37.5% (inactive)

In plain terms, CCOC(=O)N1C2C(c3ccccc3)=NC(C)(C)N2C(c2ccc([N+](=O)[O-])cc2)N1C(=O)OCC (stereo not given) has a documented growth inhibition of 17.9% (inactive)

###

Listed next: entries and their corresponding growth inhibition.
- Assay procedure: NCI Yeast Anticancer Drug Screen. Data for the rad50 strain (AID 155);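 also: 0% = growth of vehicle-only cultures of the same strain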
- Study conditions: S. cerevisiae rad50 strain growth inhibition; at 50.0 µM; stronger effect = higher value
The panel holds about 79,000 compounds, 15% with a hit somewhere; the sample as a whole holds those more often.
# value in %; strip the unit string

Molecule | Experimental endpoint | Measured value
CCn1c(=O)c2c3cc(OC(C)=O)ccc3oc2c2ccc(OC(C)=O)cc21 | growth inhibition | -23.3
CN(C)c1cc(-c2ccccc2)oc(=O)c1Cl | growth inhibition | 11.6
CCOC(=O)/C(C#N)=C/Nc1[nH]c(=O)c(C#N)c(-c2ccc(Cl)cc2)c1SC | growth inhibition | 10.9
COc1ccc(CC2COC(=O)[C@@H]2Cc2ccc(O)cc2)cc1OC (stereo partly specified) | growth inhibition | -32.9
CC(=O)Nc1cccc(OCOc2ccc([N+](=O)[O-])cc2)c1 | growth inhibition | -4.65
O=C1OCC/C1=C\c1ccsc1 | growth inhibition | 6.4
N#CS[C@@H]1CCC[C@H]1O | growth inhibition | -0.85
COc1cccc(Nc2nc(NS(=O)(=O)c3cc(C)c(Cl)cc3S)n[nH]2)c1 | growth inhibition | -7.6
Nc1ccc(CCc2ccc3ccccc3n2)cc1 | growth inhibition | 33.2
NC(=O)c1ccc(I)cc1 | growth inhibition | 1.75

Lookup result for CCC(=O)C(CC)c1ccccc1 (stereo unspecified) ; measured growth inhibition: 9.25

// sample Cc1ccc(NC(=O)CNc2ccc3c(c2)Cc2ccccc2-3)cc1 , its growth inhibition was -1.05

// sample COc1cc(/C=C/C(=O)N[C@@H]2C(=O)N3[C@@H]2SC(C)(C)[C@@H]3C(=O)O)cc(OC)c1OC , its growth inhibition was -5.6

###

- Assay procedure: NCI Yeast Anticancer Drug Screen. Data for the bub3 strain (AID 167)
- Study conditions: S. cerevisiae bub3 mutant strain, at 50.0 µM, stronger effect = higher value
About 79,000 compounds went through this panel and 15% of them were active in at least one assay; those are over-represented in the sample as a whole.
Experimental endpoint: growth inhibition (%)
Kindly answer with a numeric value in %, unit omitted.

Here is how some compounds turned out for growth inhibition.
Compound | Readout unit | growth inhibition
CN1C(=O)NC(C)(CCOCc2ccccc2)C1=O (stereo unspecified) | % | 6.65
Cc1ccc(C)c(NC(=O)CCC(=O)CC(=O)C(C)(C)C)c1 | % | -6.4
CC(C)N(C(=O)C1C2CCC(CC2)C1C(=O)N(C(C)C)C(C)C)C(C)C (stereo unspecified) | % | 27.6
NC(N)=NC1CCc2ccccc2C1 (stereo unspecified) | % | -0.6

For reference, reported growth inhibition for Cc1cccc(N=C/C=C/c2ccccc2)c1C stands at -4.7

Note to self: growth inhibition recorded for C=CCOC(=O)CCC(CCC(=O)OCC=C)C(C)=O was 4.1

Notebook: C/C=C(/C)C(=O)O[C@H]1C(C)=C[C@]23C(=O)[C@@H](C=C(COC(C)=O)[C@@H](O)[C@]12O)[C@H]1[C@@H](C[C@H]3C)[C@@]1(C)OC(=O)/C(C)=C\C , growth inhibition read as 56.8

Per the records, this compound ( CCOC(=O)/C(=C\OC(=O)c1ccccc1)NC(=O)Cc1ccccc1 ) has growth inhibition equal to 37.2

Per the records, this compound ( COc1cc(C2(C)SCCCS2)c(I)c(OC)c1OC ) has growth inhibition equal to 2.85

Entry COC(=O)c1cccc2c1cc(Br)c1ccccc12 — recorded growth inhibition = 1.35

For Cc1ncc([N+](=O)[O-])n1CCCl the compound record lists growth inhibition as -0.15

Briefly, growth inhibition measured for C#CC(C)(CC)OC(C)=O (stereo unspecified) : 19.9

Record summary for CNC(=O)OCc1c(COC(=O)NC)c(C)n(-c2ccccc2)c1C : reported growth inhibition = -3.95

CC(=O)CC(C)=NCCCCN=C(C)CC(C)=O has a reported growth inhibition of -25.2

Sample C[N+]1(C)CCN(S(=O)(=O)c2ccccc2)c2ccccc21 ; growth inhibition observed: -19.6

// field: growth inhibition; key: CCN(CC)CCOC(=O)C(S)(c1ccccc1)C1CCCCC1 (stereo unspecified) ; value = -12.7

###

- Assay procedure: NCI Yeast Anticancer Drug Screen. Data for the mlh1 rad18 strain (AID 175)
- Study conditions: S. cerevisiae mlh1 rad18 strain growth inhibition; at 50.0 µM; stronger effect = higher value
About 79,000 compounds went through this panel and 15% of them were active in at least one assay; those are over-represented in the sample as a whole.
Label rule, in plain words: growth inhibition of 10% and up is True, under 10% is False.

Reference set, count: 5
Compound | Category
CC(C)(C)OC(=O)c1c2ccccc2cc2ccccc12 | True
COc1ccc(N=Nc2c(C)c(C#N)c(=S)n(C3OC(CO)C(O)C(O)C3O)c2-c2ccccc2)cc1 (stereo unspecified) | True
O=C(CCBr)OCCC1CCCCC1 | False
O=C(NCCCCC(Br)C(=O)O)c1ccccc1 (stereo unspecified) | False
CN1CCN(Cc2oc(CO)cc(=O)c2O)CC1 | False

QUERY: Does growth inhibition meet or surpass 10% for CCOC(=O)Nc1c(O)cccc1N1CCOCC1 ?
RESULT: False

QUERY: Identify whether the reported growth inhibition of the following compound is 10% or greater: CCc1c[nH]c(C=O)c1CC
RESULT: True
